- Tested on: granulocytes
- procedure_summary: aberrant enzyme activities in febrile children, granulocytes (Table 7)
- Type: cell-based, human
- particulars: P96 Viral Syndrome
Numbered stars: 1 amine (or outer) side, 2 acyl side, 3 side chain; on linkers, the order of the positions; unused ones are H or OH. Bridge positions count the residues as written; N and C are the ends. Peptide text beside a SMILES is read from it. I, II: the chains in the order shown. Rhodamine110 = O=C1OC2(c3ccc(N[*:1])cc3Oc3cc(N[*:2])ccc32)c2ccccc21
Record form. Attribute: aberrant enzyme activity, GRANS. Fill in for each entry.

Solved entries (count: 2):
O=C(NCC(=O)N1CCC[C@H]1C(=O)Nc1ccc2c(c1)Oc1cc(NC(=O)[C@@H]3CCCN3C(=O)CNC(=O)OCc3ccccc3)ccc1C21OC(=O)c2ccccc21)OCc1ccccc1 [Z-GP]: .smallcircle.
O=C1OC2(c3ccc(OP(=O)(O)O)cc3Oc3cc(OP(=O)(O)O)ccc32)c2ccccc21 [DPO4, (PO4)2 fluorescein]: .smallcircle.

// moving on: another record for aberrant enzyme activity, GRANS
Query: Bench note: what aberrant enzyme activity, GRANS did N=C(N)NCCC[C@H](N)C(=O)NCC(=O)N[C@@H](CCC(=O)O)C(=O)N[C@@H](CO)C(=O)Nc1ccc2c(c1)Oc1cc(NC(=O)[C@H](CO)NC(=O)[C@H](CCC(=O)O)NC(=O)CNC(=O)[C@@H](N)CCCNC(=N)N)ccc1C21OC(=O)c2ccccc21 (stereo partly drawn) [RGES, (Arg-Gly-Glu-Ser)2 Rho 110] (I: H-RGES / II: H-RGES; linker I:C-II:C via Rhodamine110) show?
Result: .smallcircle.

* * *

Record form. Attribute: enzyme activity, Lymphs. Fill in for each entry.
- Tested on: lymphocytes
- procedure_summary: peptidase activity in leukemia and non-leukemia patients, lymphocytes (Table 6C)
- Assay type: cell-based, human
- Parameters: unit not given here
- particulars: P70 cirrhosis/hemobilia
Give bare numbers.

Solved entries (count: 5):
NC(=O)CC[C@H](N)C(=O)N[C@@H](CO)C(=O)Nc1ccc2c(c1)Oc1cc(NC(=O)[C@H](CO)NC(=O)[C@@H](N)CCC(N)=O)ccc1C21OC(=O)c2ccccc21 [QS, (H-L-Gln--Ser)2 Rho 110 .2TFA]: 0.04
C[C@H](N)C(=O)Nc1ccc2c(c1)Oc1cc(NC(=O)[C@H](C)N)ccc1C21OC(=O)c2ccccc21: 141.87
CC(C)C[C@H](N)C(=O)NCC(=O)Nc1ccc2c(c1)Oc1cc(NC(=O)CNC(=O)[C@@H](N)CC(C)C)ccc1C21OC(=O)c2ccccc21: 0.79
O=C1OC2(c3ccc(NC(=O)[C@@H]4CCCN4)cc3Oc3cc(NC(=O)[C@@H]4CCCN4)ccc32)c2ccccc21 [PRO, (H-L-Pro)2 --Rho 110 .2TFA]: 0.56
C[C@@H](O)[C@H](N)C(=O)N1CCC[C@H]1C(=O)Nc1ccc2c(c1)Oc1cc(NC(=O)[C@@H]3CCCN3C(=O)[C@@H](N)[C@@H](C)O)ccc1C21OC(=O)c2ccccc21 [TP, (H-L-Thr--Pro)2 Rho 110 .2TFA]: 1.89

List the reported enzyme activity, Lymphs of each compound below.
1. NCC(=O)N1CCC[C@H]1C(=O)Nc1ccc2c(c1)Oc1cc(NC(=O)[C@@H]3CCCN3C(=O)CN)ccc1C21OC(=O)c2ccccc21 [GP, (H-Gly--Pro)2 Rho .2TFA]
2. CC(C)[C@H](N)C(=O)N[C@@H](CO)C(=O)Nc1ccc2c(c1)Oc1cc(NC(=O)[C@H](CO)NC(=O)[C@@H](N)C(C)C)ccc1C21OC(=O)c2ccccc21 [VS, (H-L-Val--Ser)2 Rho 110 .2TFA]

Result:
6.68
0.04

Data credit: patent US5698411A
